Data credit: patent US8299086B2

Target: recombinant human S1P1 receptor (Homo sapiens)
Sequence (P21453 whole entry): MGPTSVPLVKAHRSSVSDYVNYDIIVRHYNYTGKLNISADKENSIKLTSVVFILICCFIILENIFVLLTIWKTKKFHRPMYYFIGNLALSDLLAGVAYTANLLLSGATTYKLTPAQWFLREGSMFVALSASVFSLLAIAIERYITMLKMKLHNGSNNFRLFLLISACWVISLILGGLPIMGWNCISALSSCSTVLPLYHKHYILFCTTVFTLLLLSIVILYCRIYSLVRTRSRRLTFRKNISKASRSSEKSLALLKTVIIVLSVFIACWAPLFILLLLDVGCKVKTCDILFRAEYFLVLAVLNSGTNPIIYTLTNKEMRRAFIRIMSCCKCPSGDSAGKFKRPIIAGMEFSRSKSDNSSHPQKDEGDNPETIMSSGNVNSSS
Assay: GTPγS assay to determine EC50 values
Assay type: biochemical
Settings: 35S-GTPγS binding, membranes of CHO cells expressing recombinant human S1P1 receptor, pH 7.4
EC50 vs 1 nM: less than gives class 1; not less than gives class 0.

# COMPOUND, ASSAY_SYSTEM, CLASS_LABEL
measured = [
    ("CCc1cc(-c2noc(-c3cc(C)nc(N(CC)CC)n3)n2)cc(C)c1OC[C@@H](O)CNCCC(=O)O", "recombinant human S1P1 receptor (Homo sapiens)", "class 0"),
    ("CCNc1nc(C)cc(-c2nc(-c3cc(C)c(OC[C@@H](O)CNC(=O)CO)c(CC)c3)no2)n1", "recombinant human S1P1 receptor (Homo sapiens)", "class 0"),
    ("CCc1cc(-c2noc(-c3cc(CC(C)C)nc(OC)n3)n2)cc(C)c1OC[C@@H](O)CNC(=O)CO", "recombinant human S1P1 receptor (Homo sapiens)", "class 1"),
    ("Cc1cc(-c2nc(-c3cc(C)c(OCC(O)CO)c(C)c3)no2)nc(NC(C)C)n1 (racemic)", "recombinant human S1P1 receptor (Homo sapiens)", "class 0"),
    ("CCc1cc(-c2noc(-c3cc(CC(C)C)nc(NC)n3)n2)cc(C)c1OC[C@@H](O)CNC(=O)CO", "recombinant human S1P1 receptor (Homo sapiens)", "class 0"),
    ("Cc1cc(-c2nc(-c3cc(C)c(OCC(O)CNC(=O)CO)c(C)c3)no2)nc(NC(C)C)n1 (racemic)", "recombinant human S1P1 receptor (Homo sapiens)", "class 1"),
]

As a next step, examine the compound that follows.
Query :: Report whether reported EC50 is lower than 1 nM (strictly) for "CCc1cc(-c2noc(-c3cc(C)nc(NC4CC4)n3)n2)cc(C)c1OC[C@@H](O)CO"
Result :: class 1
